Assay: protein stability index of a GFP-peptide fusion (GPS, HEK-293T) (PSI 1-6); higher = more stable;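 note: 24-mer peptide tiles fused after GFP, lentivirally expressed, FACS-sorted into six equal bins by GFP/DsRed ratio, decoded by Illumina sequencing, PSI is the read-weighted mean bin number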
Settings: treatment: DMSO; c terminus: a fixed tail appended
EXPERIMENTAL ENDPOINT: protein stability index
Form: value (number only, do not type unit).

Known results for sequences:
query_sequence="HHHGRSRPDRSSQGGSLPSEEKGH [CHGB]" experimental_endpoint="protein stability index" experimental_result=5.34
query_sequence="QQKKDLEILHQQNIHQLQNRLSEL [SASS6]" experimental_endpoint="protein stability index" experimental_result=3.96
query_sequence="SMVPPSPAMAASKALGSDLDSSLA [SNAP91]" experimental_endpoint="protein stability index" experimental_result=4.59
query_sequence="LRLCRLWPRNPPSRLLGAAAGQRS [DNAJC4]" experimental_endpoint="protein stability index" experimental_result=2.75

Requested read-out: protein stability index. Entry: ILIALVGATPSYHWDLAELLPNQS [SLC22A15]
2.85

Requested read-out: protein stability index. Entry: FETQMKTLAQFPETLLGDPEKRTQ [KCNA4]
4.79

Requested read-out: protein stability index. Entry: WGHCEVTMRYINGLDPEPLPLMDL [SPSB4]
2.49

Requested read-out: protein stability index. Entry: GQLVRNDSLWHRSDSAPRNKISRF [MFF]
3.66

Requested read-out: protein stability index. Entry: KEKEQENERKVAQLAEENERLKQE [DDIT3]
5.52

Requested read-out: protein stability index. Entry: RELGVWRSLLRLRATRAGAAEEPG [C2CD2L]
3.15

Requested read-out: protein stability index. Entry: GWAKHIPGFSTLSLADQMSLLQSA [ESRRG]
2.31

Requested read-out: protein stability index. Entry: MWKFVSPLCMAVLTTASIIQLGVT [SLC6A17]
3.21

Requested read-out: protein stability index. Entry: SFWNDCISSGLRGCMLIELALRGR [GOLPH3]
2.71

Requested read-out: protein stability index. Entry: ASGQGPMCNVKAPLGSPSPRPRRA [ADAMTS4]
4.88

Requested read-out: protein stability index. Entry: KANSPLKGHERTVQYLQHLGTENL [VPS39]
3.85

Requested read-out: protein stability index. Entry: MYRWKLSSHEPCSATCTTGVMSAY [ADAMTSL2]
2.24

Requested read-out: protein stability index. Entry: RFFLGDLCSRQDLYPALKGVNTVF [NSDHL]
2.19

Requested read-out: protein stability index. Entry: TVTSVSCCHGNTLLAVRSVTDEPV [NEK8]
3.21

Requested read-out: protein stability index. Entry: QPILQIDNARLAADDFRTKYEHEL [KRT16]
4.6

Requested read-out: protein stability index. Entry: SEEDGEARTQMILLRRSVEGASSD [PHTF1]
5.18

Requested read-out: protein stability index. Entry: PGPGGTMKRHSSRDAAGKPQRPRS [FCHO1]
5.04

###

Assay: protein stability index of a GFP-peptide fusion (GPS, HEK-293T) (PSI 1-6); higher = more stable
Conditions: treatment: DMSO; c terminus: a fixed tail appended
# label = t if protein stability index >= 3 else f

Here are 2 sequences together with their reported answers.
query_sequence="KVEEEIVTLRQVLAAKERHCGELK [TPD52L2]" label=t
query_sequence="TCISELRMLQREGCFRSQGASLRL [M1AP]" label=f

Check this sequence for protein stability index at or above 3: KKLRLVFKSLDKKNDGRIDAQEIM [SLC25A25]
f

Check this sequence for protein stability index at or above 3: TRCKSSEEKKPGELKRLVESRRQQ [TRIM39]
t

Check this sequence for protein stability index at or above 3: VNKVCGAACSSKRSPIIDVKNDRD [SERPINB5]
t

Check this sequence for protein stability index at or above 3: MASPCSAMAYHHDSRRIFVGQDNG [WDFY1]
f
